Molecular target: FGFR1 (human)
Assay: radiometric filter-binding kinase assay, Kinase HotSpot
Conditions: compound 0.5 µM; ATP 10 µM

{"substance smiles": "O=C1NC(=O)c2c1c1c3ccccc3n3c1c1c2c2ccccc2n1C1CCC3O1", "residual activity [%]": 29.1}
{"substance smiles": "CNc1cc2c(Nc3cccc(Br)c3)ncnc2cn1", "residual activity [%]": 96.5}
{"substance smiles": "Oc1cccc(-c2nc(N3CCOCC3)c3oc4ncccc4c3n2)c1", "residual activity [%]": 91.7}
{"substance smiles": "O=c1cc(N2CCOCC2)oc2c1ccc1ccccc12", "residual activity [%]": 92.1}
{"substance smiles": "CCN(CC)C(=O)c1ccc(Nc2nc(OCC3CCCCC3)c3nc[nH]c3n2)cc1", "residual activity [%]": 72.8}
{"substance smiles": "Nc1cccc(-c2cc3c(Oc4cccc(O)c4)ncnc3[nH]2)c1", "residual activity [%]": 39.3}
{"substance smiles": "O=C1NC(=O)C(c2cn(CCCn3ccnc3)c3ccccc23)=C1Nc1ccccc1", "residual activity [%]": 78.5}

* * *

Biological target: SGK2 (human) (UniProt Q9HBY8)
Sequence (Q9HBY8 whole entry, looked up): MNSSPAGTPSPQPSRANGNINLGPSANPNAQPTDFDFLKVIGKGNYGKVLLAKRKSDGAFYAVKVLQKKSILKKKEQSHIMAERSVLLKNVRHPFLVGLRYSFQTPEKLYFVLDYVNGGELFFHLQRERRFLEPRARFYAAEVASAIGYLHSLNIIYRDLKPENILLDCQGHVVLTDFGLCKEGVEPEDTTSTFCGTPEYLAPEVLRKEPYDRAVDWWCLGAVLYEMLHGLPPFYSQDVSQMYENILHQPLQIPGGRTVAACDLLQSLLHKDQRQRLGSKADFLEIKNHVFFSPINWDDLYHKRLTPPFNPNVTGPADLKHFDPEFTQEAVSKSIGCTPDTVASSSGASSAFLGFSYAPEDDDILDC
Assay: radiometric filter-binding kinase assay, Kinase HotSpot
Conditions: compound 0.5 µM; ATP 10 µM

{"compound": "Cc1ccc(NC2=CC(=O)c3sc(C)nc3C2=O)cc1", "residual activity, %": 94.6}
{"compound": "CO[C@H]1CC2CC[C@@H](C)[C@@](O)(O2)C(=O)C(=O)N2CCCC[C@H]2C(=O)OC([C@H](C)C[C@@H]2CC[C@@H](O)[C@H](OC)C2)CC(=O)[C@H](C)/C=C(\\C)[C@@H](O)[C@@H](OC)C(=O)[C@H](C)C[C@H](C)/C=C/C=C/C=C/1C (some centres undefined)", "residual activity, %": 101}
{"compound": "O=C1NC(=O)/C(=C/c2ccc3c(c2)OC(F)(F)O3)S1", "residual activity, %": 82.2}
{"compound": "c1ccc(-c2n[nH]c3c2oc2ccccc23)cc1", "residual activity, %": 93}
{"compound": "CC(=O)c1ccc(N2CCOCC2)cc1O", "residual activity, %": 101}
{"compound": "O=C1NC(=O)c2c1c1c3ccccc3n3c1c1c2c2ccccc2n1C1CCC3O1", "residual activity, %": 18.6}
{"compound": "CCN(CC)CCNC(=O)c1c(C)[nH]c(/C=C2\\C(=O)Nc3ccc(Cl)cc32)c1C", "residual activity, %": 62.8}
{"compound": "O=C1Nc2ccc(Cl)cc2/C1=C/c1cc(Cl)c(O)c(Cl)c1", "residual activity, %": 89.2}
{"compound": "Nc1ncnc2[nH]nc(Nc3ccc(F)cc3)c12", "residual activity, %": 96.5}

* * *

Molecular target: EPHA1 (human) (UniProt P21709)
Sequence (P21709 whole entry, looked up): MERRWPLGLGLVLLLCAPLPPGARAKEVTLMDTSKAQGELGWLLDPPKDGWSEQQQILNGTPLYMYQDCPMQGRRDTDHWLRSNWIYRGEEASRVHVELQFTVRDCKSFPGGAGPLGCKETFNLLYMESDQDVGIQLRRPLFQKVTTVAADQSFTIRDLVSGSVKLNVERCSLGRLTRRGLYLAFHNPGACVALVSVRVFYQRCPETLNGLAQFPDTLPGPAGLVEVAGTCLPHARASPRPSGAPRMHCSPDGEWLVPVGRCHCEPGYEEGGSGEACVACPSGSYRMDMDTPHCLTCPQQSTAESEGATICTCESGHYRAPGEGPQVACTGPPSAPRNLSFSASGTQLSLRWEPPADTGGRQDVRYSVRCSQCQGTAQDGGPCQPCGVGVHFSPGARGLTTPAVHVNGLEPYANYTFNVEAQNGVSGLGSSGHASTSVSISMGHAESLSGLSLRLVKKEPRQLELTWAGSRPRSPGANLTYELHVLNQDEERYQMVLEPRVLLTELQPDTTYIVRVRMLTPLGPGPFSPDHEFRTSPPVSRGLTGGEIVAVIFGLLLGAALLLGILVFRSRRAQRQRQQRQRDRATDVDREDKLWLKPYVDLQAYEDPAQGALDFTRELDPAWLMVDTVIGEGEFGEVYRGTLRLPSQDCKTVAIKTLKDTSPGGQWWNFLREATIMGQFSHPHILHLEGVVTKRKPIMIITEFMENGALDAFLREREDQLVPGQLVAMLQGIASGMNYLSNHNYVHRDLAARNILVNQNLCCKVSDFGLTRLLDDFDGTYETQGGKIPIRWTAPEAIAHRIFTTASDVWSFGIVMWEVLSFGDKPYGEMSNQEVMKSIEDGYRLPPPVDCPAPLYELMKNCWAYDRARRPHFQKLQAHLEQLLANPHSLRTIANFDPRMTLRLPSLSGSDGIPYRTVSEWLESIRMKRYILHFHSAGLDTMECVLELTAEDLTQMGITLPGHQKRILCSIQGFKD
Experiment: radiometric filter-binding kinase assay, Kinase HotSpot
Settings: compound 0.5 µM; ATP 10 µM
Threshold-based label: residual activity under 90% gives t, residual activity not under 90% gives f.

{"compound": "N#CC(C#N)=C(N)/C(C#N)=C/c1ccc(O)cc1", "assigned label": "f"}
{"compound": "Cc1ccc(S(=O)(=O)/C=C/C#N)cc1", "assigned label": "f"}
{"compound": "CCN(CC)CCNC(=O)c1c(C)[nH]c(/C=C2\\C(=O)Nc3ccc(F)cc32)c1C", "assigned label": "f"}
{"compound": "N#C/C(=C(/N)Sc1ccc(N)cc1)c1ccccc1C(F)(F)F", "assigned label": "f"}
{"compound": "O=C1NC(=O)C(c2cn(CCCn3ccnc3)c3ccccc23)=C1Nc1ccccc1", "assigned label": "f"}
{"compound": "c1ccc(-c2n[nH]cc2-c2ccnc3ccccc23)nc1", "assigned label": "f"}
{"compound": "CO[C@H]1CC2CC[C@@H](C)[C@@](O)(O2)C(=O)C(=O)N2CCCC[C@H]2C(=O)OC([C@H](C)C[C@@H]2CC[C@@H](O)[C@H](OC)C2)CC(=O)[C@H](C)/C=C(\\C)[C@@H](O)[C@@H](OC)C(=O)[C@H](C)C[C@H](C)/C=C/C=C/C=C/1C (stereo partly specified)", "assigned label": "f"}
{"compound": "Nc1ncnc2[nH]nc(Nc3ccc(F)cc3)c12", "assigned label": "f"}
{"compound": "Cc1ccc(NC2=CC(=O)c3sc(C)nc3C2=O)cc1", "assigned label": "t"}
{"compound": "c1ccc(-c2n[nH]c3c2oc2ccccc23)cc1", "assigned label": "t"}
{"compound": "COc1cc2ncnc(Nc3cccc(Cl)c3)c2cc1OC", "assigned label": "t"}
{"compound": "Nc1ccc2ncnc(NCCc3ccc(Oc4ccccc4)cc3)c2c1", "assigned label": "t"}
{"compound": "Cc1[nH]c(/C=C2\\C(=O)Nc3ccc(S(=O)(=O)N(C)c4cccc(Cl)c4)cc32)c(C)c1C(=O)N1CCN(C)CC1", "assigned label": "f"}
{"compound": "O=C(Nc1cccc(Nc2nccc(Nc3cccc(C(F)(F)F)c3)n2)c1)C1CC1", "assigned label": "t"}
{"compound": "CC(=O)c1ccc(N2CCOCC2)cc1O", "assigned label": "f"}
{"compound": "CNc1cc2c(Nc3cccc(Br)c3)ncnc2cn1", "assigned label": "f"}
{"compound": "CC[n+]1c(/C=C/N(C)c2ccccc2)n(-c2ccccc2)c2ccc(-c3nc4ccccc4s3)cc21", "assigned label": "t"}
{"compound": "Cc1ccc(Nc2nccc(N(C)c3ccc4c(C)n(C)nc4c3)n2)cc1S(N)(=O)=O", "assigned label": "t"}
{"compound": "COc1ccc(COc2ccc(Cc3cnc(N)nc3N)cc2OC)cc1", "assigned label": "t"}
{"compound": "O=S(=O)(c1cccc2cnccc12)N1CCCNCC1", "assigned label": "t"}
{"compound": "Nc1cccc(-c2cc3c(Oc4cccc(O)c4)ncnc3[nH]2)c1", "assigned label": "t"}
{"compound": "O=c1cc(N2CCOCC2)oc2c1ccc1ccccc12", "assigned label": "f"}
{"compound": "COc1ccc2c(c[n+](C)c3c4cc5c(cc4ccc23)OCO5)c1OC", "assigned label": "f"}
{"compound": "Nc1ncnc2c1c(-c1ccc(Oc3ccccc3)cc1)cn2C1CCCC1", "assigned label": "f"}

Hey, just so you know, these numbers are from the kinase profiling compilation of Christmann-Franck et al. (2016).
